target: Fes (UniProt P07332); assay: phosphorylation enrichment, bacterial display (enrichment ratio); higher = better substrate or ligand; peptides without Tyr show the background
Sequence (P07332 whole entry, looked up): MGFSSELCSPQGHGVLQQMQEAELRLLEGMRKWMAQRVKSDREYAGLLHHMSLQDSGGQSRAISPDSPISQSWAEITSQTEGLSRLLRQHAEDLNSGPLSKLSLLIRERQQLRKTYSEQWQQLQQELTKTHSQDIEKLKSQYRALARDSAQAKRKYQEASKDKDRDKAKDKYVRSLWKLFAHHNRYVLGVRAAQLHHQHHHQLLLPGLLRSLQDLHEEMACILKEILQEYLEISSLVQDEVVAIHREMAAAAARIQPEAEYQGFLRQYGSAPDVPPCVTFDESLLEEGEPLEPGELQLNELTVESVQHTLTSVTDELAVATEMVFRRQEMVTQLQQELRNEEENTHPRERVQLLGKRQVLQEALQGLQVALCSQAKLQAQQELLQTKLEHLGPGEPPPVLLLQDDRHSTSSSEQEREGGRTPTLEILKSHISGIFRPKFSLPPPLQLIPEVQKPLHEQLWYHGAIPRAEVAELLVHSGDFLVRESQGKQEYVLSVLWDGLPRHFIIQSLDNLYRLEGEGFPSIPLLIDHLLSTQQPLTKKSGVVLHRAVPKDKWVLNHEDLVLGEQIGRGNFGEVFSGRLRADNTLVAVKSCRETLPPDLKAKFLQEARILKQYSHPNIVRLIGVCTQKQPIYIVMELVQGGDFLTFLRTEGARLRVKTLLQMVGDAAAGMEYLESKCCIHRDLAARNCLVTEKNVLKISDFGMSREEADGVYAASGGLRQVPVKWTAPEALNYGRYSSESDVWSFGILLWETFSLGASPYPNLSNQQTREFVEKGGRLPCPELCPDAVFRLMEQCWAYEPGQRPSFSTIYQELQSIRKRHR
Please provide measured phosphorylation enrichment for the entries that follow.
// no unit string in output, number only

Q) Can you look up the measured phosphorylation enrichment of QLAPQYTYTQG [FLNA_Y1761_A1764T] for me?
A) 0.766

Q) Next entry: DFLSSYSAVNE [OAT_Y85_Q90E]
A) 0.953

Q) Next entry: YEDTLYTVLHR [UNC13D_Y61_A59T]
A) 1.41

Q) Next entry: NNHGNYIVLLG [ETFDH_Y172_R175L]
A) 0.902

Q) Next entry: NQELIYEGRRL [TBK1_Y354]
A) 0.763

Q) Next entry: SVVVPYEAPEV [TP53_Y220_P222A]
A) 1.01

Q) Next entry: AVRYIYTIDGS [DCX_Y105_G100A]
A) 1.2

Q) Next entry: VDTAMYATMQR [TPO_Y55]
A) 0.706

Q) Next entry: AIMSFYAALIN [RYR1_Y2426_D2431N]
A) 1.3

Q) Next entry: EKKDVYKTGEQ [CFH_Y1008_A1010T]
A) 0.663

Q) Next entry: RSSGSYGGGGQ [HNRNPA1_Y341_P340S]
A) 0.532

Q) Next entry: DENWFYTRAAS [RPS19_Y54]
A) 1.11

Q) Next entry: SSNLYYRWLTA [CNGA3_Y169]
A) 0.897

Q) Next entry: PARLEYFENEK [IRS1_Y46_YF]
A) 1.61

* * *

molecular target: c-Src SH2; experiment: SH2 binding enrichment of the phosphorylated peptide, bacterial display (enrichment ratio); higher = better substrate or ligand; peptides without Tyr show the background;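 also: peptide library displayed on the E. coli surface as eCPX fusions, selected cells deep-sequenced, score is each peptide's frequency after selection divided by its frequency in the input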
EXPERIMENTAL READOUT: SH2 binding enrichment

Q) Can you look up the measured SH2 binding enrichment of AAARPYHIQKW [ACSBG1_Y677] for me?
A) 1.19

Q) Next entry: ARMTNYGLPRY [TSPAN12_Y138]
A) 0.5

Q) Next entry: PDDPSYSLVDD [PSTPIP2_Y323_N322S]
A) 3.29

Q) Next entry: YMRGMYFRMKD [PLA2G6_Y541]
A) 1.3

Q) Next entry: APQYTYAQGGQ [FLNA_Y1763]
A) 2.62

Q) Next entry: `TENAGYYFRIS`
A) 0.736

Q) Next entry: ISRDVYSTDYY [NTRK2_Y702_M697I]
A) 0.543

Q) Next entry: DFPGNYSGFDD [POLR1C_Y33_YF]
A) 0.806

Q) Next entry: CEDMEYLESKQ [BTK_Y511_A508D]
A) 0.454

Q) Next entry: DFLSSYSAVNE [OAT_Y85_Q90E]
A) 2.35

Q) Next entry: FLRTGYSIPFG [TGM1_Y370_V372I_YF]
A) 5.52

Q) Next entry: KTVQDYLKKFF [MMP8_Y36_E38K_YF]
A) 0.42

Q) Next entry: HNVAIYEGYAL [ACTC1_Y168_P166A]
A) 2.31

Q) Next entry: KTTILHKLKLG [ARF1_Y35_Y35H]
A) 1.46

* * *

target: MERTK (UniProt Q12866); assay: phosphorylation enrichment, bacterial display (enrichment ratio); higher = better substrate or ligand; peptides without Tyr show the background
Sequence (Q12866 whole entry, looked up): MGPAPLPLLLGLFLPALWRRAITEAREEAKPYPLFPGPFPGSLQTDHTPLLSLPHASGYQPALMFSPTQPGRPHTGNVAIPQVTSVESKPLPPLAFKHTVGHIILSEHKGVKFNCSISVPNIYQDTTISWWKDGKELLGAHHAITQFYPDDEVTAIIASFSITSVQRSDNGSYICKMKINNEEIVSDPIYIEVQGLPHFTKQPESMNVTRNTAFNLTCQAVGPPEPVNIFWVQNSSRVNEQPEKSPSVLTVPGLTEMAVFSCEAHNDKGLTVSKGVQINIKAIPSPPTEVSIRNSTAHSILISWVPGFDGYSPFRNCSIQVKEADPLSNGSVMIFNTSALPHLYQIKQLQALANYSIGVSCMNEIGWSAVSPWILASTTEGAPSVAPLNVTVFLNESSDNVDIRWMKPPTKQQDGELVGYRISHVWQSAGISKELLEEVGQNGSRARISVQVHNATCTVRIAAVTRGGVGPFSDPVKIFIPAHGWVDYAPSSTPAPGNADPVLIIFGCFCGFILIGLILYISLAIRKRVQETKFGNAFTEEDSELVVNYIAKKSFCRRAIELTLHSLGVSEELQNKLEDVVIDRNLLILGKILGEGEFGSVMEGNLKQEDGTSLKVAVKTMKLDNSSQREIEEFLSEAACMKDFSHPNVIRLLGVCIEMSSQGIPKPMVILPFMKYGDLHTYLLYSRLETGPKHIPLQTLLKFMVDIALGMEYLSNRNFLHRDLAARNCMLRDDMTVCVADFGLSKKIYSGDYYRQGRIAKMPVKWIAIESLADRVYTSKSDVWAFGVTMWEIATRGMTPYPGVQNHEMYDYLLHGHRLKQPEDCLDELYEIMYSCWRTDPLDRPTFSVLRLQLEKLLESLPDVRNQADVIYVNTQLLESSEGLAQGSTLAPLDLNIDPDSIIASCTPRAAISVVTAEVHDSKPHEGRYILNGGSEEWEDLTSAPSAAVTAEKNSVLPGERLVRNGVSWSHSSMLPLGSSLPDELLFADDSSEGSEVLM
EXPERIMENTAL READOUT: phosphorylation enrichment
// no unit string in output, number only

Q) Can you look up the measured phosphorylation enrichment of VDTAMYATMQR [TPO_Y55] for me?
A) 0.764

Q) Next entry: IIRYNYLLDVL [FGFR4_Y237_S232I]
A) 0.52

Q) Next entry: LGSWTYPKTVS [ROS1_Y144_T145P]
A) 0.664

Q) Next entry: ASTHVYQIMNH [ITK_Y588]
A) 1.61

Q) Next entry: VHNLNYYKKTT [FGFR3_Y647_D646N]
A) 0.528

Q) Next entry: MKNQKYGRIIM [HSD17B4_Y143_K140N]
A) 0.301

Q) Next entry: HNLFSYPTKHE [MYO3A_Y1396_YF]
A) 0.868

Q) Next entry: CVGGFYGGCNE [CTSC_Y352_Y347C]
A) 0.585

Q) Next entry: GAALAYGLDKS [HSPA9_Y230_A225G]
A) 0.306

Q) Next entry: SVTYTYSPALN [TP53_Y126_C124Y]
A) 2.79

Q) Next entry: KIIRRYVSSEG [ANK2_Y3907]
A) 0.351

Q) Next entry: PVQAASQKVVA [HBB_Y131_Y131S]
A) 0.396

Q) Next entry: KNILCYIQGGS [HYDIN_Y4610]
A) 0.458

Q) Next entry: LLSVAYKNVVR [YWHAZ_Y48_G53R]
A) 0.689

Q) Next entry: PHRSIYFSSPK [MPG_Y75_Y71H]
A) 0.687

Q) Next entry: RFVFFYSFLLK [PTEN_Y178_YF]
A) 0.539

Q) Next entry: NTFEKYWLFFQ [GATM_Y103_P105L_YF]
A) 0.544

Q) Next entry: GQSKGYRPKLF [SIPA1L3_Y1376_YF]
A) 0.389

Q) Next entry: KELAPYDENCF [RPS19_Y48_W52C]
A) 0.487

Q) Next entry: SFHCSYSEIKD [DCLRE1C_Y322_S320C]
A) 0.497

Q) Next entry: EYFDGYWEYSV [ITGA2B_Y265_G267E]
A) 2

Q) Next entry: IEEGTYGVVFR [CDK11B_Y449_YF]
A) 3.13

Q) Next entry: PHQTIYSALMI [FGF23_Y70]
A) 13.1

Q) Next entry: NTYEKYWLFYQ [GATM_Y103_P105L]
A) 1.78

Q) Next entry: NSRFTCKLEVK [USH2A_Y3747_Y3747C_YF]
A) 0.449

Q) Next entry: FAASSYSFSDL [EMD_Y59_S54F]
A) 0.78

Q) Next entry: TAPYNYSYIFK [RAB14_Y8]
A) 6.78

Q) Next entry: GNHISYFQSDG [CACNA1C_Y1757_V1755I_YF]
A) 0.376

Q) Next entry: CDIARYIVSQL [MAST2_Y461_P459A]
A) 0.43

Origin of measurements: the supplement of paper PMC10065799
